Source: paper PMC4072508

Target desc: T1, Bfl-1, Q16548
T1 chain: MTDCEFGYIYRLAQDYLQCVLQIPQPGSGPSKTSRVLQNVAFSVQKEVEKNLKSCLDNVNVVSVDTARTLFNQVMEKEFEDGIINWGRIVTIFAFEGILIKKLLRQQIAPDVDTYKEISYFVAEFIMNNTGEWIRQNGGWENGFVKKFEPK
Run description: peptide SPOT array, c-Myc-tagged receptor at 1 uM or 100 nM, anti-c-Myc-Cy3
Readout: SPOT signal as a fraction of Bim BH3's signal on the same receptor and array

P. ADAIRPRCVELRHLCDDFINGNKKKW [MCF2L2]
Q. NNNMDVESRTMATMLDTLASRGLLDA [SEC16A]
R. RVCPYYLSRNLKQQLDIIFMPYNYLL [RTEL1]
query: Put the listed items above in order, lowest SPOT signal as a fraction of Bim BH3's signal on the same receptor and array first. Show the ranking through the labels, in the order asked for.
result: Q, P, R
(Q: 0.05, P: 0.29, R: 0.52)
